- assayed-system: SCD5 (Homo sapiens, UniProt Q86SK9)
- Construct: host or cells: S. cerevisiae ole1Δ strain (W303 pdr1Δ pdr3Δ background), plasmid pRS316 with TDH3 promoter and CYC1 terminator
- Sequence (Q86SK9 whole entry): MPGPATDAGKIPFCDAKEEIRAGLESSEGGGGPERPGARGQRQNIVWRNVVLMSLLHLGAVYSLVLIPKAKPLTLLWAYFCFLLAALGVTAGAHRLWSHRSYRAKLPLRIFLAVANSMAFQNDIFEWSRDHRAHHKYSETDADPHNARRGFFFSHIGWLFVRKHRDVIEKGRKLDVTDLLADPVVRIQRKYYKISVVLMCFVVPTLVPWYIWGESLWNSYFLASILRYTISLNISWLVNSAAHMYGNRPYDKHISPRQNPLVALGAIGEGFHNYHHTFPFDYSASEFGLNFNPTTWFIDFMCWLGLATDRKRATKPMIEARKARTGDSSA
- procedure-summary: Growth inhibition of humanized yeast strain expressing SCD5 as sole desaturase
- Format: cell-based
- test-parameters: growth inhibition of humanized yeast strain expressing human SCD5
Give measured pIC50 for each item. Keep answers brief.
Numbers only, as −log10 of the molar value.

Use the examples below as a reference point.
QUERY: Identify the measured pIC50 of CC(C)(C)OC(=O)N1CCC(c2nc(-c3ccc4cnn(C5CCOC5)c4c3)no2)CC1 (centres unmarked) for SCD5 (Homo sapiens, UniProt Q86SK9).
RESULT: 7.89

QUERY: Identify the measured pIC50 of CC(C)(C)OC(=O)N1CCC(c2nc(-c3ccc4cnn(C5CCC5)c4c3)no2)CC1 for SCD5 (Homo sapiens, UniProt Q86SK9).
RESULT: 6.14

For every item in the list below, what is its measured pIC50?
1. CC(C)n1ncc2ccc(-c3noc(C4(F)CCN(C(=O)OC5(C)CC5)CC4)n3)cc21
2. CC(C)n1ncc2ccc(-c3nc(C4CCN(C(=O)c5ncccc5Cl)CC4)no3)cc21
3. CC(C)n1ncc2ccc(-c3ccc(C4CCN(C(=O)OC(C)(C)C)C4)nn3)cc21 (centres unmarked)

RESULT:
[6.91, 6.31, 5.56]

QUERY: Identify the measured pIC50 of COC(=O)N1CCC(c2nc(-c3ccc4onc(C(C)C)c4c3)no2)CC1 for SCD5 (Homo sapiens, UniProt Q86SK9).
RESULT: 5.93
